Each recorded value in this set is attributed to paper PMC5390772.

target-of-assay: mouse 5-HT3 receptors (Mus musculus)
Sequence (P23979 24-483 isoform P23979-2 limits assumed): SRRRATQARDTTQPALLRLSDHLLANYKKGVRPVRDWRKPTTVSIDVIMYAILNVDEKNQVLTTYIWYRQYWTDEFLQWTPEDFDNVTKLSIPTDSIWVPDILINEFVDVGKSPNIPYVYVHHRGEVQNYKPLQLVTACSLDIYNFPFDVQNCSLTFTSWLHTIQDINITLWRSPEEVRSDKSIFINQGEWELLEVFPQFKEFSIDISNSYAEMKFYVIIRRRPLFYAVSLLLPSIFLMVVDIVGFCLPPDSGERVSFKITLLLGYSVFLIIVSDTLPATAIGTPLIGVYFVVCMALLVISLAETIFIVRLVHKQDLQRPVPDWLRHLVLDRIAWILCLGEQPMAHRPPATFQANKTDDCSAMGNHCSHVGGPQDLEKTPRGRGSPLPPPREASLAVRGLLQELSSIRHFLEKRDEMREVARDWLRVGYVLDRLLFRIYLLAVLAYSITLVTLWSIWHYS
measured-parameter: Ki
Enter the number, and then the unit.

// Ki value for Clc1ccc(C2CC3CCC2N3)cn1 (stereo not shown) [epibatidine] : 12.3 µM

* * *

target-of-assay: α7 nACh receptor D160C
Type: binding, chick
measured-parameter: Kd (nM)
Answers are plain numbers, in nM.

// Kd value for Clc1ccc(C2CC3CCC2N3)cn1 (stereo not shown) [[^3H]epibatidine] : 8.7

* * *

target-of-assay: α7 nACh receptor L116C
measured-parameter: Kd (nM)
Answers are plain numbers, in nM.

// Kd value for Clc1ccc(C2CC3CCC2N3)cn1 (stereo not shown) [[^3H]epibatidine] : 5.1

* * *

target-of-assay: α7 nACh receptor Y91C
condition-notes: no saturable binding
measured-parameter: Kd

// Kd value for Clc1ccc(C2CC3CCC2N3)cn1 (stereo not shown) [[^3H]epibatidine] : > 20 nM

* * *

target-of-assay: α7 nACh receptor Q55C
measured-parameter: Kd (nM)
One number for each entry, in nM.

// Kd value for Clc1ccc(C2CC3CCC2N3)cn1 (stereo not shown) [[^3H]epibatidine] : 6.9

* * *

target-of-assay: α7 nACh receptor Y184C
condition-notes: no saturable binding
measured-parameter: Kd

// Kd value for Clc1ccc(C2CC3CCC2N3)cn1 (stereo not shown) [[^3H]epibatidine] : > 0.02 µM

* * *

target-of-assay: α7 nACh receptor L106C
measured-parameter: pKd
Answers are plain numbers, as −log10 of the molar value.

pKd for α7 nACh receptor L106C with input Clc1ccc(C2CC3CCC2N3)cn1 (stereo not shown) [[^3H]epibatidine] equals 8.08

* * *

target-of-assay: α7 nACh receptor W53C
condition-notes: no saturable binding
measured-parameter: Kd

// Kd value for Clc1ccc(C2CC3CCC2N3)cn1 (stereo not shown) [[^3H]epibatidine] : > 0.02 µM

* * *

target-of-assay: α7 nACh receptor Q114C
Procedure: Mutagenesis was performed using the QuikChange method (Agilent Technologies Inc., CA, USA) to substitute amino acids throughout each of the binding loops A – F (Fig. 1). […] Transfected HEK 293 cells were scraped into 0.6 ml of ice-cold 10 mM HEPES buffer (pH 7.4) and stored frozen. […] Non-specific binding was determined using 300 μM (−)-nicotine. […] Radioactivity was determined by scintillation in Ultima Gold XR (Perkin Elmer) using a Tri-Carb 2100 TR (PerkinElmer) scintillation counter. […]
measured-parameter: Kd (nM)
Numbers only, in nM.

// Kd value for Clc1ccc(C2CC3CCC2N3)cn1 (stereo not shown) [[^3H]epibatidine] : 1.5

* * *

target-of-assay: human 5-HT3 receptors (Homo sapiens, UniProt P46098)
Sequence (P46098 24-478): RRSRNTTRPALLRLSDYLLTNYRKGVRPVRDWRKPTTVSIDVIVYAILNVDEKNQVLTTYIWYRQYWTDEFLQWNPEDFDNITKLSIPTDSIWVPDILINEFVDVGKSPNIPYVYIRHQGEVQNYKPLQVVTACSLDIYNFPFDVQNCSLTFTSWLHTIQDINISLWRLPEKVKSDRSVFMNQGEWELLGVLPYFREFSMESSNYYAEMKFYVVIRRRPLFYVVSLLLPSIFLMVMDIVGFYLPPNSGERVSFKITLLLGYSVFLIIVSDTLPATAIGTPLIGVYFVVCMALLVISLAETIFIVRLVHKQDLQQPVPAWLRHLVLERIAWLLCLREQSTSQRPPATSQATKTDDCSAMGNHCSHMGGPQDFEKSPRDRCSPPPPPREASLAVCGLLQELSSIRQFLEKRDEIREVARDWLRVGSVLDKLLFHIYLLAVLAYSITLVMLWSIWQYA
measured-parameter: pKi
Answers are plain numbers, as −log10 of the molar value.

// pKi value for Clc1ccc(C2CC3CCC2N3)cn1 (stereo not shown) [epibatidine] : 5.60

* * *

target-of-assay: α7 nACh receptor S144C
measured-parameter: Kd (nM)
Answers are plain numbers, in nM.

// Kd value for Clc1ccc(C2CC3CCC2N3)cn1 (stereo not shown) [[^3H]epibatidine] : 2.3

* * *

target-of-assay: α7 nACh receptor W145C
condition-notes: no saturable binding
pKd: −log10 of the molar value.
measured-parameter: pKd

// pKd value for Clc1ccc(C2CC3CCC2N3)cn1 (stereo not shown) [[^3H]epibatidine] : < 7.70

* * *

target-of-assay: wild type α7 nACh receptors (UniProt P22770+P23979)
Construct: directed against the 5-HT3 region of the chimaeric receptor
Sequence (P22770+P23979 fused P22770:T225I/P22770:M226I): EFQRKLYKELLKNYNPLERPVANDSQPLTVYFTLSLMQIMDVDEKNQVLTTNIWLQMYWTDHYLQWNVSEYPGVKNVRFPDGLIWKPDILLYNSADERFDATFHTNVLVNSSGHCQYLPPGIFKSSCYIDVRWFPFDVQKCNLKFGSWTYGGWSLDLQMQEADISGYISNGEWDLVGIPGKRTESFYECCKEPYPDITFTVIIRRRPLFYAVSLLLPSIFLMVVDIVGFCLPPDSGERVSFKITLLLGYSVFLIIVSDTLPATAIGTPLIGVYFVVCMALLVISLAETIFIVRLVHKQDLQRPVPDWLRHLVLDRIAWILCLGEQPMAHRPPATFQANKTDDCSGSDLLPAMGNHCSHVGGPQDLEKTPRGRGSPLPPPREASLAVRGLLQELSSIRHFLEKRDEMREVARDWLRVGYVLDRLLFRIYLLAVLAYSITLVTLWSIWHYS
measured-parameter: Kd (nM)
One number for each entry, in nM.

Kd for wild type α7 nACh receptors (UniProt P22770+P23979) with input Clc1ccc(C2CC3CCC2N3)cn1 (stereo not shown) [[^3H]epibatidine] equals 8
